# EXPERIMENT: NCI Yeast Anticancer Drug Screen. Data for the cln2 rad14 strain (AID 165);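 note: 0% = growth equal to vehicle treated cultures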
# CONDITION CONTEXT: S. cerevisiae cln2 rad14 strain, at 50.0 µM, hits give high values
Compounds without any hit were thinned out: in the full panel of roughly 79,000, 15% have a hit.
MEASURE NAME: growth inhibition (%)
Enter your answer as a number in %; do not include the unit.

{"COMPOUND": "COC12COC(=O)C1C(c1ccc3c(c1)OCO3)c1cc3c(cc1O2)OCO3 (configuration not stated)", "MEASURE NAME": "growth inhibition", "UNITS OF MEASURE": "%", "REPORTED": 8.95}
{"COMPOUND": "COc1nc2[nH]ccc2c(=O)n1C", "MEASURE NAME": "growth inhibition", "UNITS OF MEASURE": "%", "REPORTED": 10.3}
{"COMPOUND": "CC(C)CN(CC(C)C)C(=O)C1CCCC[C@@H]1C(=O)O (some centres not stated)", "MEASURE NAME": "growth inhibition", "UNITS OF MEASURE": "%", "REPORTED": 18.7}
{"COMPOUND": "CC1(CCl)Nc2ccccc2C(=O)N1c1ccc(Cl)cc1 (configuration not stated)", "MEASURE NAME": "growth inhibition", "UNITS OF MEASURE": "%", "REPORTED": -2.05}
{"COMPOUND": "CC(C)CCN(CC(C)C)C(=O)c1ccc([N+](=O)[O-])cc1 (tested in a mixture with another compound)", "MEASURE NAME": "growth inhibition", "UNITS OF MEASURE": "%", "REPORTED": -3.25}

Exam item: Look up growth inhibition for this compound: "Cc1cc(C)c2c(c1)CSCc1cc(C)cc(C)c1-2"
Marked response: 10

Exam item: Look up growth inhibition for this compound: NC(=O)C1CC(I)C2CC1C(=O)O2 (configuration not stated)
Marked response: 4.3

Exam item: Look up growth inhibition for this compound: CC(=O)CCC(CC(=O)O)C(C)C (configuration not stated)
Marked response: -9

Exam item: Look up growth inhibition for this compound: O=C(CC(c1ccccc1)C1CCCN(c2ccccc2)S1(=O)=O)c1ccccc1 (configuration not stated)
Marked response: 16.9

Exam item: Look up growth inhibition for this compound: "C/C(CC(O)(C(F)(F)F)C(F)(F)F)=N\NC(N)=O"
Marked response: -1.45

Exam item: Look up growth inhibition for this compound: "COC(=O)C(Cl)=C1CC1"
Marked response: 18.6

Exam item: Look up growth inhibition for this compound: "COc1cc(/C=C(\C#N)c2ccccc2)cc(OC)c1"
Marked response: -9.8
